system: LXRa:RXRa (NR concentration 270 nM, RXRa partner concentration 90 nM); experiment: PBM binding z-score (relative to random genomic background probes); higher = stronger binding; sequences stand for … in GC…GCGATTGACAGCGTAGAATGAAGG
# Lookup of reported PBM binding z-score keyed by entry
Number, no unit, nothing else.

Some solved entries appear below for comparison.
{"sequenceInput": "AGATTGAGGTTATACGTAGATCAGGGAAGAAAGT", "quantityKind": "PBM binding z-score", "recordedMeasurement": 1.79}
{"sequenceInput": "AGTCCAAGTTCATCTAGGTAACGTAAGATATGCT", "quantityKind": "PBM binding z-score", "recordedMeasurement": 3.23}
{"sequenceInput": "AGAACGAGGTTAAGATCAGGGAAACAGAATACAT", "quantityKind": "PBM binding z-score", "recordedMeasurement": 2.05}
{"sequenceInput": "ATCTCTAGGTAAATTTCAGTGAAAGATCGATAGA", "quantityKind": "PBM binding z-score", "recordedMeasurement": 0.31}
{"sequenceInput": "CCTTACGGGTCAAGGTTAAAGCACGGGTGGTACG", "quantityKind": "PBM binding z-score", "recordedMeasurement": 3.83}

Entry `CCTCACGGGTCACTGACAGGTTATAGCATTTGGA` : reported PBM binding z-score = ? 3.72

Please report the recorded PBM binding z-score for `GCTCGGTGGACAAGGTCAGAGCTTTGTCCGTAGA` . 1.03

Could you tell me which PBM binding z-score is on file for `CGAACTCGGTCATTGACAGGACAGTGAATAGTAA` ? 1.2

Entry `GCAGACAGGTGAAACGCAGGTAACTCAGGGTGGC` has what PBM binding z-score? 0.00311

Reported PBM binding z-score for `ATCGAAAGGACGAGGTGAGTATAGAGAAAGGGAA` : what is it? 0.168
